assay: Unbound brain to plasma partition coefficient of the compound in mdr1a-deficient Sprague-Dawley rat treated with venlafaxine at 9 mg/kg/day administered through continuous minipump treatment for 3 days; type: ADME, organism-based; conditions: other: continuous minipump, read-out: K(p,uu,brain)
Listed here: items and their measured Kp uu at 72 h.
readout-label: Kp uu at 72 h

CNCC(c1ccc(OC)cc1)C1(O)CCCCC1 (configuration not stated) [N-DESMETHYLVENLAFAXINE] ... 2
CN(C)CC(c1ccc(O)cc1)C1(O)CCCCC1 (configuration not stated) [DESVENLAFAXINE] ... 1.2

---

test: Total drug level in mdr1a-deficient rat brain at 5 mg/kg/day administered through continuous minipump treatment for 3 days by UPLC-MS analysis; type: ADME, organism-based; conditions: other: continuous minipump, read-out: Drug uptake
readout-label: concentration at 72 h (ng/g)

Cc1nc2n(c(=O)c1CCN1CCC(c3noc4cc(F)ccc34)CC1)CCCC2 [RISPERIDONE] ... 295
